I'd be grateful if you could share measured GI50 for these entries.
system: OVCAR-3; assay: NCI in vitro disease-oriented tumor cells screen; assay type: cell-based, human; details: Homo sapiens; Ovarian Cancer OVCAR-3; Table 2 (numbering of Examples 1-13); average of at least two testings; read-out: Cytotoxicity log GI50 (converted)
One number for each entry, in nM.

* CC(=O)OC(C)c1cc2c(s1)C(=O)c1c(C(C)OC(C)=O)csc1C2=O (stereo not shown) | 275
* CC(=O)c1cc2c(s1)C(=O)c1c(C(C)=O)csc1C2=O | 229
* CC(O)c1cc2c(s1)C(=O)c1c(C(C)O)csc1C2=O (stereo not shown) | 11.7
* CC(=O)OC(C)c1cc2c(s1)C(=O)c1sccc1C2=O (stereo not shown) | 490

We now examine a further compound.
Incoming: Sample CC(O)c1cc2c(s1)C(=O)c1sccc1C2=O (stereo not shown) — what was its GI50?
Outgoing: 117

###

test system: SK-MEL-5; test: NCI in vitro disease-oriented tumor cells screen; type: cell-based, human; conditions: Homo sapiens; Melanoma SK-MEL-5; Table 2 (numbering of Examples 1-13); average of at least two testings; read-out: Cytotoxicity log GI50 (converted)
Would you kindly list GI50 for each of these compounds?
Answers are plain numbers, in nM.

Go through the items and report each one's GI50.
1. CC(=O)OC(C)c1cc2c(s1)C(=O)c1c(C(C)OC(C)=O)csc1C2=O (stereo not shown) [Compound 15]
2. CC(=O)OC(C)c1cc2c(s1)C(=O)c1ccsc1C2=O (stereo not shown) [Compound 11]

Outgoing:
1. 631
2. 13.5

Batch lookup, GI50 per entry.
1. CC(=O)c1cc2c(s1)C(=O)c1c(C(C)=O)csc1C2=O [Compound 13]
2. CC(O)c1cc2c(s1)C(=O)c1sccc1C2=O (stereo not shown) [Compound 20]
3. CC(O)c1cc2c(s1)C(=O)c1c(C(C)O)csc1C2=O (stereo not shown) [Compound 14]
4. CC(=O)OC(C)c1cc2c(s1)C(=O)c1sccc1C2=O (stereo not shown) [Compound 21]

Outgoing:
[1200, 13.5, 12.6, 107]

###

test system: OVCAR-8; test: NCI in vitro disease-oriented tumor cells screen; type: cell-based, human; settings: Homo sapiens; Ovarian Cancer OVCAR-8; Table 2; average of at least two testings; read-out: Cytotoxicity log GI50 (converted)
endpointLabel: GI50 (nM)
Numbers only, in nM.

- CC(=O)OC(C)c1cc2c(s1)C(=O)c1sccc1C2=O (stereo not shown): 1410
- CC(=O)c1cc2c(s1)C(=O)c1c(C(C)=O)csc1C2=O: 1450
- CC(=O)OC(C)c1cc2c(s1)C(=O)c1ccsc1C2=O (stereo not shown): 36.3
- CC(O)c1cc2c(s1)C(=O)c1c(C(C)O)csc1C2=O (stereo not shown): 219
- CC(=O)c1cc2c(s1)C(=O)c1sccc1C2=O: 30.9

Report GI50 for each item below.
1. CC(=O)OC(C)c1cc2c(s1)C(=O)c1c(C(C)OC(C)=O)csc1C2=O (stereo not shown)
2. CC(O)c1cc2c(s1)C(=O)c1sccc1C2=O (stereo not shown)

Outgoing:
1: 457; 2: 162

###

endpointLabel: melting point

Before answering, review these 4 worked examples.
• CC(=O)OC(C)c1cc2c(s1)C(=O)c1sccc1C2=O (centres unmarked) = 165 to 166 °C
• CC(=O)c1cc2c(s1)C(=O)c1ccccc1C2=O = 139 to 140 °C
• CC(O)c1cc2c(s1)C(=O)c1sccc1C2=O (centres unmarked) = 170 to 172 °C
• CC(=O)c1csc2c1C(=O)c1ccccc1C2=O = 244 to 245 °C

Then this compound:
Incoming: Please look up its melting point: CC(=O)OC(C)c1cc2c(s1)C(=O)c1c(C(C)OC(C)=O)csc1C2=O (centres unmarked)
Outgoing: 180 to 182 °C
